- target_under_test: human ERα (Homo sapiens)
- assay: NF-κB luciferase reporter (ER/NF-KB-luc) in Ad5-wt-hERα infected HAECT-1 cells
- experimental_setup: HAECT1, read-out: ER/NF-KB-luc % E2, efficacy relative to the maximal inhibition observed with E2
Quick reference for Emax among some compounds
Reply with just the number (in %).

- structure_notation: "CCCn1nc(-c2ccc(O)cc2)c2cccc(-c3ccc(F)cc3)c21"
  Emax (%): 81

Report Emax under test system human ERα (Homo sapiens) for Cn1nc(-c2ccc(O)cc2)c2cccc(Cl)c21 .
85

Under human ERα (Homo sapiens), report Emax for CS(=O)(=O)c1ccc(-n2nc(-c3ccc(O)cc3O)c3ccc(O)cc32)cc1
86

Report the value of Emax obtained on human ERα (Homo sapiens) for Oc1ccc(-c2nn(-c3ccsc3)c3c(Cl)cccc23)cc1 .
61

Enter Emax (test system human ERα (Homo sapiens)) for Oc1ccc(-c2nn(Cc3ccccc3)c3c(Cl)cccc23)c(O)c1
67

* * *

- target_under_test: human ERα (Homo sapiens)
- assay: NF-κB luciferase reporter (ER/NF-KB-luc) in Ad5-wt-hERα infected HAECT-1 cells
- experimental_setup: HAECT1, read-out: ER/NF-KB-luc % E2, efficacy relative to the maximal inhibition observed with E2
# Emax per entry
Please respond with the number in % and leave the unit unwritten.

Please review the entries below; each comes with its answer.
- molecule: "Cc1cc(O)ccc1-c1nn(C(C)C)c2c(-c3ccco3)cccc12 [Example 254]"
  target_under_test: "human ERα (Homo sapiens)"
  Emax, %: 56
- molecule: "Cc1cc(O)ccc1-c1nn(CC(C)C)c2c(F)cccc12 [Example 96]"
  target_under_test: "human ERα (Homo sapiens)"
  Emax, %: 78
- molecule: "Oc1ccc(-c2nn(-c3ccccc3F)c3cc(O)ccc23)c(O)c1 [Example 22]"
  target_under_test: "human ERα (Homo sapiens)"
  Emax, %: 73

Could you now look at the following molecule, please?
Please give measured Emax of the following entry: COc1ccccc1-n1nc(-c2ccc(O)cc2O)c2ccc(O)cc21 [Example 12]
61

* * *

- target_under_test: human ERα (Homo sapiens)
- Sequence (P03372 1-595): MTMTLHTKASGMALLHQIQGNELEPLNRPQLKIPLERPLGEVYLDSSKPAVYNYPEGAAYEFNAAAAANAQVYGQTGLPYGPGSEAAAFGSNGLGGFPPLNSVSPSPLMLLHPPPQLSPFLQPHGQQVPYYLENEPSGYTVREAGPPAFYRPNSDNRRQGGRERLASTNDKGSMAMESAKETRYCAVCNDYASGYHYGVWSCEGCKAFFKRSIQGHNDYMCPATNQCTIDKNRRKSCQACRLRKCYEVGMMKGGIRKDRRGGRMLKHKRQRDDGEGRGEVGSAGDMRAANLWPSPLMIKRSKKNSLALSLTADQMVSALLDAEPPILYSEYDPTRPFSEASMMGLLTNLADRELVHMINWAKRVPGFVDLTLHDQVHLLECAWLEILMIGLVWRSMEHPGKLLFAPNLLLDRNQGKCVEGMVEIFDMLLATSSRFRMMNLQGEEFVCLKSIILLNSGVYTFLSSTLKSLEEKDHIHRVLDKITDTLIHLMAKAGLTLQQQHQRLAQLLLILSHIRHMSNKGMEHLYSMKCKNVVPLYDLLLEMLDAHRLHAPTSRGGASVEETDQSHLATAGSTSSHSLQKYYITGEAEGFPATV
- assay: Creatine kinase expression (ER/CK) in Ad5-wt-hERα infected HAECT-1 cells
- experimental_setup: efficacy relative to the maximal stimulation observed with E2
Please enter 1 (yes) where ER/CK % E2 is greater than or equal to 50 % E2, and 0 (no) where it is lower.

The examples below pair each entry with its known result.
- compound: "CCC(=O)Oc1ccc(-c2nn(C3CCCC3)c3c(F)cccc23)cc1 [Example 115]"
  class: "1 (yes)"
- compound: "Oc1ccc(-c2nn(C3CCCC3)c3c(-c4ccco4)cccc23)cc1 [Example 244]"
  class: "0 (no)"
- compound: "Oc1ccc(-c2nn(C3CCCC3)c3c(-c4ccccc4)cccc23)cc1 [Example 246]"
  class: "0 (no)"
- compound: "Cc1cccc(-n2nc(-c3ccc(O)cc3O)c3ccc(O)cc32)c1 [Example 23]"
  class: "1 (yes)"
- compound: "CCCCn1nc(-c2ccc(O)cc2)c2cc(C(F)(F)F)ccc21 [Example 206]"
  class: "0 (no)"
- compound: "Oc1ccc(-c2n[nH]c3ccccc23)cc1O [Example 202, 4-(1H-indazol-3-yl)benzene-1,2-diol]"
  class: "1 (yes)"
- compound: "Cn1nc(-c2ccc(O)cc2O)c2cccc(Cl)c21 [Example 170]"
  class: "0 (no)"
- compound: "CC(C)n1nc2c(F)cccc2c1-c1ccc(O)cc1 [Example 56]"
  class: "0 (no)"

Moving on to another compound below.
Is ER/CK % E2 at least 50 % E2? Consider CCCn1nc(-c2ccc(O)cc2C)c2cccc(C(F)(F)F)c21 [Example 76]
0 (no)
